- Tested on: NCI-H522
- protocol-description: NCI tumour cell line growth inhibition, 48 h
The source made the active and inactive calls. Rule as the data show it: active = GI50 up to about 1.1 µM and inactive = higher.
Collected GI50 values appear next to each entry.

{"molecule": "Clc1ccc(CSCCc2ccncc2)cc1Cl", "GI50": "15.4 µM (inactive)"}
{"molecule": "CC(C)(C)[Si](C)(C)OCCCC#CCO", "GI50": "> 100 µM (inactive)"}
{"molecule": "CC(=O)OCC1OC(SC2=N/C(=C\\c3cc4c(=O)c5ccccc5sc4s3)C(=O)N2c2ccccc2)C(OC(C)=O)C(OC(C)=O)C1OC(C)=O (configuration not stated)", "GI50": "> 100 µM (inactive)"}
{"molecule": "CO/C(=N\\N=C\\c1ccc(Cl)cc1Cl)c1ccncc1", "GI50": "> 10 µM (inactive)"}
{"molecule": "CC(C#N)c1cn(S(=O)(=O)c2ccccc2)c2ccccc12 (configuration not stated)", "GI50": "27.7 µM (inactive)"}
{"molecule": "C=C1C(=O)O[C@@H]2/C=C(\\C)CC/C=C(\\C)CC[C@@]12O", "GI50": "0.371 µM (active)"}

Continue with the next molecule.
State the recorded GI50 for this entry: CCOC(=O)C12C(C(=O)OC)=C(C)N(NC(=O)Nc3ccccc3)C1(N)N(NC(=O)Nc1ccccc1)C(C)=C2C(=O)OC (configuration not stated) 20.9 µM (inactive)

###

Collected GI50 values appear next to each entry.
- System: MDA-MB-231
- protocol-description: NCI tumour cell line growth inhibition, 48 h
Active and inactive are the calls of the source. Cut-off read from the data, not from the text of the source: active = GI50 up to about 1.1 µM and inactive = higher.

Here's what some known entries look like.
{"compound": "COC(=O)[C@@H]1CN(C(C)=O)C(=O)N1C(=O)OCc1ccccc1", "measure": "GI50", "observed-result": "> 100 µM (inactive)"}
{"compound": "CC(C)(O)CCc1ccc(O)c2c(=O)c3c(O)c4c(cc3oc12)O[C@H]1OC=C[C@@]41O [AUSTOCYSTIN D]", "measure": "GI50", "observed-result": "2.26 µM (inactive)"}

State the recorded GI50 for this entry: O=C(NC(CS)C(=O)O)c1cccc2c(=O)c3ccccc3[nH]c12 (centres undefined) > 100 µM (inactive)

Next entry: Cc1nc2ccccc2n1CCc1nc2ccccc2s1 39.6 µM (inactive)

Next entry: O=C(CSCC(=O)N/N=C\c1ccc(O)c(O)c1O)N/N=C\c1ccc(O)c(O)c1O 16.6 µM (inactive)

Next entry: Cc1cc(C)nc(NS(=O)(=O)c2ccc(NNc3c4ccccc4nc4c(C(=O)Nc5ccc(S(N)(=O)=O)cc5)cccc34)cc2)n1 13.3 µM (inactive)

Next entry: c1ccc2[nH]c3nc4ccccc4c-3cc2c1 1.24 µM (inactive)

Next entry: COC(=O)c1cc(OCc2cc(OCc3ccc(Br)cc3)cc(OCc3ccc(Br)cc3)c2)cc(OCc2cc(OCc3ccc(Br)cc3)cc(OCc3ccc(Br)cc3)c2)c1 > 100 µM (inactive)

Next entry: O=C1Sc2ccc(Br)cc2C(=O)Sc2ccccc21 16.5 µM (inactive)

###

- Tested on: HOP-62
- protocol-description: NCI tumour cell line growth inhibition, 48 h
The source made the active and inactive calls. Cut-off read from the data, not from the text of the source: active = GI50 up to about 1.1 µM and inactive = higher.
Collected GI50 values appear next to each entry.

{"compound": "N#Cc1c(-c2ccc([N+](=O)[O-])cc2)cc(-c2ccc(Nc3ccnc4cc(C(F)(F)F)ccc34)cc2)[nH]c1=O", "study-system": "HOP-62", "measure": "GI50", "observed-result": "> 100 µM (inactive)"}
{"compound": "Nc1nc(Cl)c(Cl)c(NCC2(O)CCC2)n1", "study-system": "HOP-62", "measure": "GI50", "observed-result": "92.3 µM (inactive)"}
{"compound": "CN(C)/C=N/S(=O)(=O)c1nn2c(C=O)c(-c3ccc(Cl)cc3)nc2s1", "study-system": "HOP-62", "measure": "GI50", "observed-result": "13.2 µM (inactive)"}

State the recorded GI50 for this entry: C/C=C(/C)C(=O)O[C@@H]1CCN2CC[C@H](COC(=O)/C(=C/C)CO)C12 (stereo not given in full) > 100 µM (inactive)

Next entry: CC1=NN(c2ccccc2)C(=O)/C1=C\c1c(C)[nH]n(-c2ccccc2)c1=O > 100 µM (inactive)

###

- Tested on: SW-620
- protocol-description: NCI tumour cell line growth inhibition, 48 h
Calls of active or inactive are those of the source. Rule as the data show it: active = GI50 up to about 1.1 µM and inactive = higher.
measure: GI50

Here's what some known entries look like.
{"smiles": "c1ccc2cc(-c3cc4ccccc4s3)ccc2c1", "GI50": "> 100 µM (inactive)"}
{"smiles": "CC[C@]12C=CCN3CC[C@@]4(c5ccc(OC)cc5N(C)[C@H]4[C@@](O)(C(=O)OC)[C@@H]1OC(C)=O)[C@@H]32", "GI50": "> 200 µM (inactive)"}

State the recorded GI50 for this entry: CC(=O)CC(=O)CCCC(=O)Nc1ccc(Cl)cc1C > 100 µM (inactive)

Next entry: O=C(NCC(O)CNC(=O)C(F)(F)F)C(F)(F)F > 100 µM (inactive)

Next entry: O=c1c2cc([N+](=O)[O-])ccc2n2n1Cc1ccccc1C2 > 100 µM (inactive)

###

- Test system: EKVX
- protocol-description: NCI tumour cell line growth inhibition, 48 h
Activity calls are given as the source filed them. No stated cut-off is given here; in the data, active = GI50 up to about 1.1 µM and inactive = higher.
Mark one answer only. Choices: active, inactive

{"molecule": "CC[C@]12C=CCN3CC[C@@]4(c5ccc(OC)cc5N(C)[C@H]4[C@@](O)(C(=O)OC)[C@@H]1OC(C)=O)[C@@H]32", "label-value": "inactive"}

Can you look up the reported call for C=C(c1ccc2[nH]c(NC(=O)OC)nc2c1)c1cccs1 for me? inactive

Next entry: CCCCOP(=O)(OCCCC)C(NS(=O)(=O)c1ccccc1)(C(=O)OCC)C(F)(F)F (stereo not given) inactive

Next entry: O=c1cc(N2CCN(c3cc(=O)n4ccccc4n3)CC2)oc2ccccc12 inactive

###

- Test system: EKVX
- protocol-description: NCI tumour cell line growth inhibition, 48 h
The source made the active and inactive calls. Rule as the data show it: active = GI50 up to about 1.1 µM and inactive = higher.
Mark one answer only. Choices: 1.0 for active, 0.0 for inactive

{"compound": "Cc1ccc2c(c1)C1(C)OC(CC(N)C1O)O2 (centres undefined)", "label-value": 0.0}

Can you look up the reported call for O=C(Nc1ccc(Br)cc1)c1c(-c2ccccc2)c2ccc(O)cc2oc1=O for me? 0.0

Next entry: COC(=O)C(C#CCCCCC#CC(NC(=O)OCc1ccccc1)(C(=O)OC)C(F)(F)F)(NC(=O)OCc1ccccc1)C(F)(F)F (centres undefined) 0.0

Next entry: CN(C)CC(C)(C)C(=O)/C=C/c1ccc(/C=C/C(=O)C(C)(C)CN(C)C)cc1 0.0

Next entry: Clc1ccccc1/C=c1\nc(-c2ccccc2)n2c1nc1ccccc12 0.0

Next entry: Nc1ccc(C(=O)N/C(=C\C=C\c2ccco2)c2nc3c(O)nc(S)nc3[nH]2)cc1 0.0

Next entry: N=C1/C(=C/c2ccco2)C(=O)N=C2SC=NN12 0.0

Next entry: C/C(=N\Nc1nc2ccccc2s1)c1cc(C)ncn1 1.0

Next entry: c1ccc2/c3[nH]/c(c2c1)=N\c1ccc(cc1)-c1nc2ccc(cc2o1)/N=c1/[nH]/c(c2ccccc12)=N/c1ccc2nc(oc2c1)-c1ccc(cc1)\N=3 0.0

###

- Tested on: MOLT-4
- protocol-description: NCI tumour cell line growth inhibition, 48 h
Activity calls are given as the source filed them. Rule as the data show it: active = GI50 up to about 1.1 µM and inactive = higher.
Mark one answer only. Choices: T (active), F (inactive)

Example entries and their recorded answers appear below.
{"compound": "Nc1cccc2cc(Cl)cnc12", "label-value": "F"}
{"compound": "CC(=O)[C@@]1(O)CC[C@H]2[C@@H]3C[C@H](C)C4=CC(=O)C=C[C@]4(C)[C@@]3(F)[C@@H](O)C[C@@]21C", "label-value": "F"}
{"compound": "O=C(/N=C1\\SCCN1C(=O)C(C(F)(F)F)C(F)(F)F)C(C(F)(F)F)C(F)(F)F", "label-value": "F"}
{"compound": "c1c[nH]c(CN2CCOCC2)n1", "label-value": "F"}
{"compound": "O=C1OC2CC=CC1C2 (stereo unspecified)", "label-value": "F"}
{"compound": "Cc1c(C)c(S(=O)(=O)N(CCCCCN)OCCCN)c(C)c2c1OC(C)(C)CC2", "label-value": "F"}
{"compound": "Cc1cccc(C(C)(C)C)c1NC(=O)CC1Sc2ccccc2NC1=O (stereo unspecified)", "label-value": "F"}
{"compound": "Cc1cc(NCCCCCCCCCC[n+]2c(C)cc(N)c3ccccc32)c2ccccc2n1", "label-value": "T"}

Can you look up the reported call for CN1C(=O)N/C(=C\c2ccc(S(=O)(=O)NN)cc2)C1=O for me? F

Next entry: CCCCCCC(CCl)c1sc(-c2csc(CCNC(=O)OC(C)(C)C)n2)nc1C(=O)OC (stereo unspecified) F

Next entry: C/C=C(/C)C(=O)O[C@@H]1CCN2CC[C@H](COC(=O)/C(=C/C)CO)C12 (stereo partly specified) F

Next entry: COCOc1cc(OC)ccc1C/C=N/O F

Next entry: O=C1/C(=C/c2c(Cl)[nH]c3ccccc23)c2ccccc2N1c1ccccc1 F
